Source of measurements: ChEMBL document CHEMBL3351883

- Test system: Human immunodeficiency virus 1
- methodSummary: Antiviral activity against HIV1 infected in human C8166 cells after 72 hrs by p24 antigen based ELISA
- Assay type: functional
The source made the active and inactive calls. The rule behind the calls is not given here.
quantityName: inhibition

CC(=O)OC[C@]12[C@H](OC(=O)c3ccccc3)[C@H](OC(=O)c3ccccc3)[C@@H]3[C@@H](OC(C)=O)[C@]1(OC3(C)C)[C@H](C)C[C@H](O)[C@@H]2OC(C)=O    inactive
CC(=O)OC[C@]12[C@H](OC(C)=O)[C@@H](O)[C@@H]3[C@@H](O)[C@@]14O[C@@]3(C)COC(=O)c1cnccc1CCC(C)C(=O)O[C@@H]([C@H](OC(C)=O)[C@@H]2OC(C)=O)[C@]4(C)O (stereo partly drawn)    inactive
CC(=O)O[C@@H]1[C@@H]2[C@@H](OC(C)=O)[C@]3(OC2(C)C)[C@H](C)C[C@H](OC(C)=O)[C@H](OC(=O)c2ccccc2)[C@@]3(C)[C@@H]1OC(C)=O    inactive
